Molecular target: Solute carrier family 12 member 5 (Homo sapiens) (UniProt Q9H2X9)
Sequence (Q9H2X9 whole entry, looked up): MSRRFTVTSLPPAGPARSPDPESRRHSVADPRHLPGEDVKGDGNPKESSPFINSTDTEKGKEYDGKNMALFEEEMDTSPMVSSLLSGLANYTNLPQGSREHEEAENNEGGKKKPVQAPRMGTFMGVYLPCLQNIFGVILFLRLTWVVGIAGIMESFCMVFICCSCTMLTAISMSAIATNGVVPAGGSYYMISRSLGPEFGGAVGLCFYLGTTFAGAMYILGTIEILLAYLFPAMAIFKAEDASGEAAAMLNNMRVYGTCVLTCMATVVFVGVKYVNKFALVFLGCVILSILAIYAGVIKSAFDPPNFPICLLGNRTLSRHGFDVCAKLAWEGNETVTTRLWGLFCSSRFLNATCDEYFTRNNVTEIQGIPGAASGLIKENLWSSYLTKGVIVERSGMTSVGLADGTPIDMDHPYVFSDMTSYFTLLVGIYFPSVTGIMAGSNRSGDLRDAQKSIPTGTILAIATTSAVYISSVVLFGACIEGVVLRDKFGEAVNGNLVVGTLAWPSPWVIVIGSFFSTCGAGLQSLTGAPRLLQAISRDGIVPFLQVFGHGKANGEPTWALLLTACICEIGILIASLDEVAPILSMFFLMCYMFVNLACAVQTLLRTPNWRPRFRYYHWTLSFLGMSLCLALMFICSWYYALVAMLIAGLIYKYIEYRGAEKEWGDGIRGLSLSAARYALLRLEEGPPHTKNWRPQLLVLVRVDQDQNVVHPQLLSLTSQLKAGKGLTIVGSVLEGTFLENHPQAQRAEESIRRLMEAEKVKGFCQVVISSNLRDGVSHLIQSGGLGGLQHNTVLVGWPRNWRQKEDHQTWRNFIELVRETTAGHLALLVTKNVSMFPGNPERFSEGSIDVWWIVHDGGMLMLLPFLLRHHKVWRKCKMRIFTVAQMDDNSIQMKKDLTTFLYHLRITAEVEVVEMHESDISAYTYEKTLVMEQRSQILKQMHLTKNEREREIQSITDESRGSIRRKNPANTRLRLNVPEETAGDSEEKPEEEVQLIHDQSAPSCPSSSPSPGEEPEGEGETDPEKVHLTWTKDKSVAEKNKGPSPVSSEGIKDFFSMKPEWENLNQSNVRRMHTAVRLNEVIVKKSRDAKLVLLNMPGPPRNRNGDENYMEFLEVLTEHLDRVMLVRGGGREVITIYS
Test: modulation of human KCC2 ion transport – cell-based, HEK293 KCC2, FluoZin-2 fluorescence, MLSMR, primary screen (AID 1456);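 further: slope of fluorescence scaled to starting intensity during 10 to 20 s after thallium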
Conditions: KCC2 cells, thallium flux FluoZin-2 fluorescence; at 10 µM
Out of some 190,000 compounds screened, about 4,100 (2.2%) were called active. The sample as a whole holds a higher share of actives than the screen did.
observed property: B-score of Tl+ flux slope (higher = more flux/activation; lower = inhibition)

So, Cc1ccc(OCC(=O)N2CCN(C(=O)c3cccnc3)CC2)cc1 ? Its B-score of Tl+ flux slope (higher = more flux/activation; lower = inhibition) was 2.71 (active)

So, Cc1cc(=O)[nH]c(SCC(N)=O)c1C#N ? Its B-score of Tl+ flux slope (higher = more flux/activation; lower = inhibition) was 0.485 (inactive)

So, Cc1cccc(C)c1NC(=O)CSc1nnc(-c2ccccc2)n1Cc1ccc2c(c1)OCO2 ? Its B-score of Tl+ flux slope (higher = more flux/activation; lower = inhibition) was -0.0425 (inactive)

So, CC(C)OP(=O)(OC(C)C)C(Nc1ccccc1)c1cccc([N+](=O)[O-])c1 (configuration not stated) ? Its B-score of Tl+ flux slope (higher = more flux/activation; lower = inhibition) was -1.5 (inactive)

So, CCOC(=O)c1cc(C#N)c(N2CCCCC2)nc1-c1ccccc1 ? Its B-score of Tl+ flux slope (higher = more flux/activation; lower = inhibition) was 0.496 (inactive)

So, O=C(/C=C/c1c(Cl)cccc1Cl)NCc1ccccc1 ? Its B-score of Tl+ flux slope (higher = more flux/activation; lower = inhibition) was 0.452 (inactive)

So, COc1ccc(-c2nc(CS(=O)CC(=O)NCc3ccccn3)c(C)o2)cc1 (configuration not stated) ? Its B-score of Tl+ flux slope (higher = more flux/activation; lower = inhibition) was 1.46 (inactive)

So, O=C(COc1ccccc1)N1CCc2ccccc2C1 ? Its B-score of Tl+ flux slope (higher = more flux/activation; lower = inhibition) was 0.0757 (inactive)

New cases:
So, CN1CCN(c2ccc(S(=O)(=O)N3CCOCC3)cc2NC(=O)CCc2ccccc2)CC1 ? Its B-score of Tl+ flux slope (higher = more flux/activation; lower = inhibition) was 0.193 (inactive)

So, CN(C)c1ccc(/C=C/C(=O)c2ccc(O)cc2)cc1[N+](=O)[O-] ? Its B-score of Tl+ flux slope (higher = more flux/activation; lower = inhibition) was -1.51 (inactive)

###

Target: Solute carrier family 12 member 5 (Homo sapiens)
Assay: modulation of human KCC2 ion transport – cell-based, HEK293 KCC2, FluoZin-2 fluorescence, MLSMR, primary screen (AID 1456)
Conditions: KCC2 cells, thallium flux FluoZin-2 fluorescence; at 10 µM
About 4,100 (2.2%) of roughly 190,000 compounds were called active.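 The calls were made as follows: active = thallium flux slope and its plate-corrected score both differing from the plate sample mean at a set confidence after two filtering rounds, in either direction; inactive = the rest.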 Shown is part of a subset that was picked to be rich in actives.
Your reply should match one of these outcome classes. T (active), F (inactive)

Ask: // outcome(item) with item = COC(=O)c1cc(S(=O)(=O)N2CCC(C(N)=O)CC2)oc1C
Reply: F

New cases:
Ask: // outcome(item) with item = O=C(Nc1nncs1)c1ccccc1NS(=O)(=O)c1cccs1
Reply: F

Ask: // outcome(item) with item = Oc1ccc(N=Nc2nccs2)c(O)c1
Reply: F

Ask: // outcome(item) with item = O=C1CCCC(O)=C1N=Nc1ccc(S(=O)(=O)N2CCOCC2)cc1
Reply: F

Ask: // outcome(item) with item = COC(=O)c1sccc1NC(=O)CSc1ccccc1NS(=O)(=O)c1cc(Cl)ccc1Cl
Reply: T

Ask: // outcome(item) with item = COc1ccc(/C=N/NS(=O)(=O)c2ccc(NC(C)=O)cc2)cc1
Reply: F

###

Molecular target: Solute carrier family 12 member 5 (Homo sapiens) (UniProt Q9H2X9)
Experiment: modulation of human KCC2 ion transport – cell-based, HEK293 KCC2, FluoZin-2 fluorescence, MLSMR, primary screen (AID 1456);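 further: slope of fluorescence scaled to starting intensity during 10 to 20 s after thallium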
Details: KCC2 cells, thallium flux FluoZin-2 fluorescence; at 10 µM
Screen size: about 190,000 compounds; about 4,100 (2.2%) were called active. Shown is part of a subset that was picked to be rich in actives.
observed property: B-score of Tl+ flux slope (higher = more flux/activation; lower = inhibition)
Give the value as a plain number.

So, COc1cccc(C(=O)n2ccc(-c3cccs3)n2)c1 ? Its B-score of Tl+ flux slope (higher = more flux/activation; lower = inhibition) was 0.604

New cases:
So, Cn1c(=O)c2c(ncn2CCc2ccccc2)n(C)c1=O ? Its B-score of Tl+ flux slope (higher = more flux/activation; lower = inhibition) was -0.25

So, Cn1nccc1NS(=O)(=O)c1ccc(F)cc1 ? Its B-score of Tl+ flux slope (higher = more flux/activation; lower = inhibition) was 0.158

###

Biological target: Solute carrier family 12 member 5 (Homo sapiens) (UniProt Q9H2X9)
Assay: modulation of human KCC2 ion transport – cell-based, HEK293 KCC2, FluoZin-2 fluorescence, MLSMR, primary screen (AID 1456);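 further: slope of fluorescence scaled to starting intensity during 10 to 20 s after thallium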
Settings: KCC2 cells, thallium flux FluoZin-2 fluorescence; at 10 µM
The whole screen tested about 190,000 compounds, of which about 4,100 (2.2%) were called active. This excerpt belongs to a sample that is enriched for actives.
observed property: B-score of Tl+ flux slope (higher = more flux/activation; lower = inhibition)
Give the value as a plain number.

Look over these answered cases.
So, Nc1nnn(CC(=O)N/N=C/c2ccc(O)cc2)n1 ? Its B-score of Tl+ flux slope (higher = more flux/activation; lower = inhibition) was 0.292

So, CCOC(=O)c1cn[nH]c1NC(=S)Nc1ccccc1 ? Its B-score of Tl+ flux slope (higher = more flux/activation; lower = inhibition) was 0.559

So, N#Cc1ccccc1Sc1ccccc1C(=O)OCC(=O)NC1CCCCC1 ? Its B-score of Tl+ flux slope (higher = more flux/activation; lower = inhibition) was -0.81

So, CC1C(=O)NC(=O)C1c1ccccc1 (stereo unspecified) ? Its B-score of Tl+ flux slope (higher = more flux/activation; lower = inhibition) was 0.0909

So, N#CCSc1nc2c(c(=O)n1Cc1ccccc1)C1(CCCC1)Cc1ccccc1-2 ? Its B-score of Tl+ flux slope (higher = more flux/activation; lower = inhibition) was 1.45

Here is another molecule to look at.
So, O=C(O)CS/C(=C\c1ccc(F)cc1)c1nc2ccccc2s1 ? Its B-score of Tl+ flux slope (higher = more flux/activation; lower = inhibition) was -7.14

###

Molecular target: Solute carrier family 12 member 5 (Homo sapiens) (UniProt Q9H2X9)
Experiment: modulation of human KCC2 ion transport – cell-based, HEK293 KCC2, FluoZin-2 fluorescence, MLSMR, primary screen (AID 1456);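 further: slope of fluorescence scaled to starting intensity during 10 to 20 s after thallium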
Settings: KCC2 cells, thallium flux FluoZin-2 fluorescence; at 10 µM
About 4,100 (2.2%) of roughly 190,000 compounds were called active. Shown is part of a subset that was picked to be rich in actives.
Class (by B-score of Tl+ flux slope (higher = more flux/activation; lower = inhibition)) -- low = under -0.3, mid = from -0.3 up to 0.1, high = 0.1 and over

Use the examples below as a reference point.
Ask: GET /class?item= CCn1c(CN2C(=O)CSc3ccccc32)n[nH]c1=S
Reply: high

Ask: GET /class?item= Cc1nn(-c2ccccc2)c(=O)c2noc(C)c12
Reply: mid

Ask: GET /class?item= Cc1ccc(OCc2n[nH]c(=S)n2-c2ccc(C)cc2)cc1
Reply: high

Ask: GET /class?item= O=C(Nc1ccc(Br)cn1)c1ccc([N+](=O)[O-])o1
Reply: high

Ask: GET /class?item= S=c1[nH]nc(COc2ccccc2)n1-c1ccccc1
Reply: high

New cases:
Ask: GET /class?item= Cc1nc2ccccc2cc1C(=O)N/N=C/c1ccc([N+](=O)[O-])cc1
Reply: low

Ask: GET /class?item= CCc1nnc(NC(=O)c2cccc(S(=O)(=O)N(C)c3ccc(OC)cc3)c2)s1
Reply: mid

Ask: GET /class?item= O=C(NCc1ccccc1)c1ccc(S(=O)(=O)Nc2cccc(C(F)(F)F)c2)cc1
Reply: low

Ask: GET /class?item= Cc1ccc(Cn2c(SCC(=O)N/N=C/c3ccccc3OCC(=O)O)nc3ccccc32)cc1
Reply: high

Ask: GET /class?item= CNC(=O)c1cc2c(ccc3ccccc32)oc1=N
Reply: low

Ask: GET /class?item= COc1ccc(OCC(=O)N2CCN(C(=O)COc3ccccc3)CC2)cc1
Reply: mid

Ask: GET /class?item= NCC(=O)c1cccc2ccc[n+]([O-])c12
Reply: high

Ask: GET /class?item= O=[N+]([O-])C(=c1ccc2c(c1)N1C3=C(CCCC3)CC3CCCCC31N=2)[N+](=O)[O-] (configuration not stated)
Reply: mid

Ask: GET /class?item= Cc1ccccc1-c1nc(CS(=O)(=O)CC(=O)N2CCc3ccccc3C2)c(C)o1
Reply: low

Ask: GET /class?item= COC(=O)c1ccc(S(=O)(=O)N(CCO)Cc2ccccc2)n1C
Reply: mid

Ask: GET /class?item= CN(C)C(=O)c1nc2ccc(Cl)cn2c1CNCc1cccc(OC(F)(F)F)c1
Reply: low
